# Test system: A549 (human lung cancer)
# assay-summary: Solid tumor cell growth inhibition, MTT, 72 h (Example 7)
# Type: cell-based
# details: Homo sapiens; 72 h, MTT, A549
measured-endpoint: IC50 (µg/mL)
Give bare numbers, in µg/mL.

Check out these entries, answers already filled in.
1. COc1ccc2cc1Oc1ccc(cc1)C[C@H]1c3cc(c(OC)cc3CCN1C)Oc1c(OC)c(OC)c(CNC3CC3)c3c1[C@H](C2)N(C)CC3 5.1
2. COc1ccc2cc1Oc1ccc(cc1)C[C@H]1c3cc(c(OC)cc3CCN1C)Oc1c(OC)c(OC)c(COCc3ccsc3)c3c1[C@H](C2)N(C)CC3 2.44

## Input Please give measured IC50 of the following entry: COc1ccc2cc1Oc1ccc(cc1)C[C@H]1c3cc(c(OC)cc3CCN1C)Oc1c(OC)c(OC)c(CN)c3c1[C@H](C2)N(C)CC3
## Output 1.66

---

Exercise: for every item that follows, state its recorded IC50.
# Test system: SK-OV-3 (ovarian cancer cell)
# assay-summary: Solid tumor cell growth inhibition, MTT, 72 h (Example 7)
# Type: cell-based
# details: Homo sapiens
# Experimental: […] Obtaining 4000 well-growing human solid tumor cells and inoculating them into wells of a 96-well cell culture plate. […] Then the viable cell concentration is determined by the MTT method and the cell viability (%) after drug treatment is calculated. […]
Numbers only, in µg/mL.

The following compounds have reported results that may help.
compound	IC50, µg/mL
COc1ccc2cc1Oc1ccc(cc1)C[C@H]1c3cc(c(OC)cc3CCN1C)Oc1c(OC)c(OC)c(CNC3CC3)c3c1[C@H](C2)N(C)CC3	3.77
COc1ccc2cc1Oc1ccc(cc1)C[C@H]1c3cc(c(OC)cc3CCN1C)Oc1c(OC)c(OC)c(CN3CCC(N(C)C)CC3)c3c1[C@H](C2)N(C)CC3	1.4
COc1ccc2cc1Oc1ccc(cc1)C[C@H]1c3cc(c(OC)cc3CCN1C)Oc1c(OC)c(OC)cc3c1[C@H](C2)N(C)CC3 [TTD, reference compound]	9.04
COc1ccc2cc1Oc1ccc(cc1)C[C@H]1c3cc(c(OC)cc3CCN1C)Oc1c(OC)c(OC)c(CNCc3ccc(C)o3)c3c1[C@H](C2)N(C)CC3	4
COc1ccc2cc1Oc1ccc(cc1)C[C@H]1c3cc(c(OC)cc3CCN1C)Oc1c(OC)c(OC)c(CN(C)[C@@H](C)c3ccccc3)c3c1[C@H](C2)N(C)CC3	2

## Input Return value of IC50 for input COc1ccc2cc1Oc1ccc(cc1)C[C@H]1c3cc(c(OC)cc3CCN1C)Oc1c(OC)c(OC)c(COC(=O)c3ccco3)c3c1[C@H](C2)N(C)CC3 , no commentary.
## Output 7

---

# Test system: RPMI8226 (multiple myeloma)
# assay-summary: Multiple myeloma cell growth inhibition, MTT, 72 h (Example 6)
# Assay type: cell-based, human
# details: Homo sapiens, RPMI-8226; 72 h, MTT, RPMI8226
Criterion: IC50 strictly under 0.1 µg/mL. Met: satisfied. Not met: not satisfied.

molecule	class
COc1ccc2cc1Oc1ccc(cc1)C[C@H]1c3cc(c(OC)cc3CCN1C)Oc1c(OC)c(OC)c(CN3CCN(CCO)CC3)c3c1[C@H](C2)N(C)CC3	satisfied
COc1ccc2cc1Oc1ccc(cc1)C[C@H]1c3cc(c(OC)cc3CCN1C)Oc1c(OC)c(OC)c(CNCC(C)O)c3c1[C@H](C2)N(C)CC3 (stereo partly drawn)	not satisfied

## Input Dear colleague, could you confirm whether IC50 of COc1ccc2cc1Oc1ccc(cc1)C[C@H]1c3cc(c(OC)cc3CCN1C)Oc1c(OC)c(OC)c(CN3CCN(C(C)C)CC3)c3c1[C@H](C2)N(C)CC3 falls below 0.1 µg/mL? Thanks.
## Output satisfied

## Input For COc1ccc2cc1Oc1ccc(cc1)C[C@H]1c3cc(c(OC)cc3CCN1C)Oc1c(OC)c(OC)c(CN3CCC(N(C)C)CC3)c3c1[C@H](C2)N(C)CC3 , is the recorded IC50 below the cut-off of 0.1 µg/mL?
## Output satisfied

## Input Take the molecule COc1ccc2cc1Oc1ccc(cc1)C[C@H]1c3cc(c(OC)cc3CCN1C)Oc1c(OC)c(OC)c(COCc3ccsc3)c3c1[C@H](C2)N(C)CC3 and say whether its IC50 is less than 0.1 µg/mL.
## Output not satisfied

## Input IC50 strictly < 0.1 µg/mL for this molecule? COc1ccc2cc1Oc1ccc(cc1)C[C@H]1c3cc(c(OC)cc3CCN1C)Oc1c(OC)c(OC)c(CNCc3cccs3)c3c1[C@H](C2)N(C)CC3
## Output satisfied

## Input API: query returns whether the molecule falls strictly under 0.1 µg/mL in IC50. Query: COc1ccc2cc1Oc1ccc(cc1)C[C@H]1c3cc(c(OC)cc3CCN1C)Oc1c(OC)c(OC)c(CN3CCCC(O)C3)c3c1[C@H](C2)N(C)CC3 (stereo partly drawn)
## Output satisfied

## Input Report whether reported IC50 is lower than 0.1 µg/mL (strictly) for COc1ccc2cc1Oc1ccc(cc1)C[C@H]1c3cc(c(OC)cc3CCN1C)Oc1c(OC)c(OC)c(COCc3ccc(F)cc3)c3c1[C@H](C2)N(C)CC3
## Output not satisfied

## Input In plain terms, does COc1ccc2cc1Oc1ccc(cc1)C[C@H]1c3cc(c(OC)cc3CCN1C)Oc1c(OC)c(OC)c(COC(=O)c3ccc(N(C)C)cc3)c3c1[C@H](C2)N(C)CC3 come in under 0.1 µg/mL for IC50?
## Output not satisfied

## Input A record lists COc1ccc2cc1Oc1ccc(cc1)C[C@H]1c3cc(c(OC)cc3CCN1C)Oc1c(OC)c(OC)c(CN3CCC(C#N)CC3)c3c1[C@H](C2)N(C)CC3 . Is its IC50 below 0.1 µg/mL?
## Output not satisfied

## Input Please state whether IC50 is below 0.1 µg/mL for COc1ccc2cc1Oc1ccc(cc1)C[C@H]1c3cc(c(OC)cc3CCN1C)Oc1c(OC)c(OC)c(CN3CCC(O)C3)c3c1[C@H](C2)N(C)CC3 (stereo partly drawn)
## Output not satisfied

## Input Regarding COc1ccc2cc1Oc1ccc(cc1)C[C@H]1c3cc(c(OC)cc3CCN1C)Oc1c(OC)c(OC)c(CN3CCCC(C)C3)c3c1[C@H](C2)N(C)CC3 (stereo partly drawn) , kindly confirm whether its IC50 is beneath 0.1 µg/mL.
## Output satisfied

---

# Test system: MGC 803 (human gastric cancer cell)
# assay-summary: Solid tumor cell growth inhibition, MTT, 72 h (Example 7)
# Format: cell-based
# details: Homo sapiens
Hi! Just check whether IC90 is below 4 µg/mL. Below gives Criterion met, equal or above gives Criterion not met.

compound	study-system	class
COc1ccc2cc1Oc1ccc(cc1)C[C@H]1c3cc(c(OC)cc3CCN1C)Oc1c(OC)c(OC)c(CNCc3ccccn3)c3c1[C@H](C2)N(C)CC3 [BS-TE-352]	MGC 803 (human gastric cancer cell)	Criterion not met
COc1ccc2cc1Oc1ccc(cc1)C[C@H]1c3cc(c(OC)cc3CCN1C)Oc1c(OC)c(OC)c(CNc3nccs3)c3c1[C@H](C2)N(C)CC3 [BS-TE-320]	MGC 803 (human gastric cancer cell)	Criterion met
COc1ccc2cc1Oc1ccc(cc1)C[C@H]1c3cc(c(OC)cc3CCN1C)Oc1c(OC)c(OC)c(COCCOc3ccccc3)c3c1[C@H](C2)N(C)CC3 [BS-TE-402]	MGC 803 (human gastric cancer cell)	Criterion met
COc1ccc2cc1Oc1ccc(cc1)C[C@H]1c3cc(c(OC)cc3CCN1C)Oc1c(OC)c(OC)c(CN(C)[C@@H](C)c3ccccc3)c3c1[C@H](C2)N(C)CC3 [BS-TE-317]	MGC 803 (human gastric cancer cell)	Criterion met
COCC(C)OCc1c2c3c(c(OC)c1OC)Oc1cc4c(cc1OC)CCN(C)[C@H]4Cc1ccc(cc1)Oc1cc(ccc1OC)C[C@@H]3N(C)CC2 (stereo partly drawn) [BS-TE-406]	MGC 803 (human gastric cancer cell)	Criterion not met

## Input Determine whether this compound shows IC90 lower than 4 µg/mL (ties excluded): COc1ccc2cc1Oc1ccc(cc1)C[C@H]1c3cc(c(OC)cc3CCN1C)Oc1c(OC)c(OC)c(CNC3CC3)c3c1[C@H](C2)N(C)CC3 [BS-TE-301]
## Output Criterion not met

## Input Strictly below 4 µg/mL: is that where IC90 of COCCCOCc1c2c3c(c(OC)c1OC)Oc1cc4c(cc1OC)CCN(C)[C@H]4Cc1ccc(cc1)Oc1cc(ccc1OC)C[C@@H]3N(C)CC2 [BS-TE-416] sits?
## Output Criterion not met

## Input Check if IC90 falls below 4 µg/mL for COc1ccc2cc1Oc1ccc(cc1)C[C@H]1c3cc(c(OC)cc3CCN1C)Oc1c(OC)c(OC)c(COCC3CCOC3)c3c1[C@H](C2)N(C)CC3 (stereo partly drawn) [BS-TE-417] .
## Output Criterion not met

## Input Item CCOCc1c2c3c(c(OC)c1OC)Oc1cc4c(cc1OC)CCN(C)[C@H]4Cc1ccc(cc1)Oc1cc(ccc1OC)C[C@@H]3N(C)CC2 [BS-TE-419] : IC90 beneath 4 µg/mL, strictly?
## Output Criterion not met

## Input Is it true that IC90 reported for COc1ccc2cc1Oc1ccc(cc1)C[C@H]1c3cc(c(OC)cc3CCN1C)Oc1c(OC)c(OC)c(CN3CCCN(C)CC3)c3c1[C@H](C2)N(C)CC3 [BS-TE-356] is less than 4 µg/mL?
## Output Criterion met

## Input Would you kindly verify if IC90 of COc1ccc2cc1Oc1ccc(cc1)C[C@H]1c3cc(c(OC)cc3CCN1C)Oc1c(OC)c(OC)c(CNCc3cccnc3)c3c1[C@H](C2)N(C)CC3 [BS-TE-348] is strictly less than 4 µg/mL?
## Output Criterion not met

## Input Given the entry COc1ccc2cc1Oc1ccc(cc1)C[C@H]1c3cc(c(OC)cc3CCN1C)Oc1c(OC)c(OC)c(COCc3ccsc3)c3c1[C@H](C2)N(C)CC3 [BS-TE-415] , would its reported IC90 be below 4 µg/mL?
## Output Criterion met
